Give measured IC50 for each item. Keep answers brief.
study-system: EGFR del/T790M (PC9-DRH) (Homo sapiens, UniProt P00533, DEL746-750/T790M)
Construct: detects endogenous levels of phospho-EGF Receptor (Tyr1068) protein; endogenous in cells
Sequence (P00533 with tags, fused parts or gaps DEL746-750/T790M): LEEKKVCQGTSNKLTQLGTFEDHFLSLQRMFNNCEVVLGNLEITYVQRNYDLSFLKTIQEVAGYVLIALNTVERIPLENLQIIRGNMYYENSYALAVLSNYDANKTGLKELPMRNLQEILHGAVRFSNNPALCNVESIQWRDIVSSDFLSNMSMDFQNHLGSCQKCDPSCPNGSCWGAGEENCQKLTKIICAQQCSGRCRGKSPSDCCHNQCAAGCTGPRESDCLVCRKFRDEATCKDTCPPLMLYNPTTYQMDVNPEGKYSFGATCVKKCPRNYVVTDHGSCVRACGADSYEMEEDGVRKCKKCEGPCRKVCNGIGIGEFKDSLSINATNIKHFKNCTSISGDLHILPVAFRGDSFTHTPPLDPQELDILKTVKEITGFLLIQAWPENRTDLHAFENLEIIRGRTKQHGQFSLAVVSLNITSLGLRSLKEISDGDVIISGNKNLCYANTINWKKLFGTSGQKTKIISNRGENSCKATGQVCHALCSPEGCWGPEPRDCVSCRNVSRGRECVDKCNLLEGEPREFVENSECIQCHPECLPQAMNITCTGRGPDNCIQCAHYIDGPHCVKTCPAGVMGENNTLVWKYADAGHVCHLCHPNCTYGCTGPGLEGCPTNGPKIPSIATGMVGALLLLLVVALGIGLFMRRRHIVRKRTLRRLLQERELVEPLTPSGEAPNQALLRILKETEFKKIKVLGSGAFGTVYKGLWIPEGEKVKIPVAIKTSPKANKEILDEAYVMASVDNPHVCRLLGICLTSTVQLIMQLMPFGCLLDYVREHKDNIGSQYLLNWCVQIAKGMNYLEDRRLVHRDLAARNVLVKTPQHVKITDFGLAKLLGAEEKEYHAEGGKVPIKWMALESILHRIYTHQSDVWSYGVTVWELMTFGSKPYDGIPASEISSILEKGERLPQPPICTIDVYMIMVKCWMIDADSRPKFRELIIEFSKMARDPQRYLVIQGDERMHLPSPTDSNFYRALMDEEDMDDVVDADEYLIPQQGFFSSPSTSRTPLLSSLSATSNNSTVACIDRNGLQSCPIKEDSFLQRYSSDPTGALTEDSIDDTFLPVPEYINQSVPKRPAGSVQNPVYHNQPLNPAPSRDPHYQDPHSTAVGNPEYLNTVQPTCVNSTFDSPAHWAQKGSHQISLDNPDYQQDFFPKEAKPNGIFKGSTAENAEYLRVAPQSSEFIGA
test-protocol: pEGFR Y1068 ELISA assay, PC9-DRH cells
assay-context: inhibition of phosphorylation of EGFR at Tyr1068; PC9-DRH cells (dacomitinib resistant); 2 hr compound incubation
Give bare numbers, in nM.

Solved cases (4 shown):
> print(dat)
                                   compound                              study.system  reported.measurement
1  C=CC(=O)N1C[C@@H]2CN(c3nc(Nc4ccc(N5CCN(C)CC5)cc4)c4ncn(C(C)(C)C)c4n3)C[C@@H]2C1  EGFR del/T790M (PC9-DRH) (Homo sapiens, UniProt P00533, DEL746-750/T790M)                    27
2  C=CC(=O)N[C@@H]1CN(c2nc(Nc3cn(C)nc3C)c3ncn(CC)c3n2)C[C@H]1F  EGFR del/T790M (PC9-DRH) (Homo sapiens, UniProt P00533, DEL746-750/T790M)                     2
3  C=CC(=O)N[C@@H]1CN(c2nc(Nc3cn(C4CCN(C)C4)nc3C)c3ncn(C)c3n2)C[C@H]1F (some centres unmarked)  EGFR del/T790M (PC9-DRH) (Homo sapiens, UniProt P00533, DEL746-750/T790M)                     8
4  C=CC(=O)N[C@H]1CCN(c2nc(Nc3cnn(C4CCN(C)CC4)c3)c3ncn(C(C)C)c3n2)C1  EGFR del/T790M (PC9-DRH) (Homo sapiens, UniProt P00533, DEL746-750/T790M)                     3

Can you give me IC50 for all of these, one by one?
1. C=CC(=O)N[C@@H]1CN(c2nc(Nc3cn(C4CCN(C)C4)nc3C)c3ncn(CC)c3n2)C[C@H]1F (some centres unmarked)
2. C=CC(=O)N1C[C@@H](F)[C@H](Nc2nc(Nc3ccc(N4CCN(C)CC4)cc3)c3ncn(C)c3n2)C1 (relative stereo)
3. C=CC(=O)N[C@@H]1CN(c2nc(Nc3ccc(N4CCC(N(C)C)CC4)cc3OC)c3ncn(C(C)C)c3n2)C[C@H]1F
4. C=CC(=O)N[C@@H]1CN(c2nc(Nc3cnn([C@@H]4CCN(C)C4)c3C)c3ncn(C(C)C)c3n2)C[C@H]1F
5. C=CC(=O)N1C[C@@H]2CN(c3nc(Nc4cnn(C)c4)c4ncn(C(C)C)c4n3)C[C@@H]2C1
6. C=CC(=O)Nc1cccc(Oc2nc(Nc3ccc(N4CCN(C)CC4)cc3)c3ncn(C(C)C)c3n2)c1
7. C=CC(=O)NC1(C)CN(c2nc(Nc3cnn(C)c3)c3ncn(CC)c3n2)C1

Reply:
[10, 2, 9, 15, 6, 9, 2]

Can you give me IC50 for all of these, one by one?
1. C=CC(=O)N[C@@H]1CN(c2nc(Nc3cn(C4CCN(C)C4)nc3C)c3ncn(C(C)C)c3n2)C[C@H]1F (some centres unmarked) [Example 55]
2. C=CC(=O)N[C@@H]1CN(c2nc(Nc3cnn(C)c3)c3ncn(C(C)C)c3n2)C[C@@H]1OC (single isomer, unassigned)
3. C=CC(=O)N1C[C@@H]2CN(c3nc(Nc4cnn(C)c4C)c4ncn(C(C)C)c4n3)C[C@@H]2C1

Reply:
1. 3
2. 34
3. 2500

====

study-system: EGFR del (PC9) (Homo sapiens, UniProt P00533, DEL746-750)
Construct: detects endogenous levels of phospho-EGF Receptor (Tyr1068) protein
Sequence (P00533 with tags, fused parts or gaps DEL746-750): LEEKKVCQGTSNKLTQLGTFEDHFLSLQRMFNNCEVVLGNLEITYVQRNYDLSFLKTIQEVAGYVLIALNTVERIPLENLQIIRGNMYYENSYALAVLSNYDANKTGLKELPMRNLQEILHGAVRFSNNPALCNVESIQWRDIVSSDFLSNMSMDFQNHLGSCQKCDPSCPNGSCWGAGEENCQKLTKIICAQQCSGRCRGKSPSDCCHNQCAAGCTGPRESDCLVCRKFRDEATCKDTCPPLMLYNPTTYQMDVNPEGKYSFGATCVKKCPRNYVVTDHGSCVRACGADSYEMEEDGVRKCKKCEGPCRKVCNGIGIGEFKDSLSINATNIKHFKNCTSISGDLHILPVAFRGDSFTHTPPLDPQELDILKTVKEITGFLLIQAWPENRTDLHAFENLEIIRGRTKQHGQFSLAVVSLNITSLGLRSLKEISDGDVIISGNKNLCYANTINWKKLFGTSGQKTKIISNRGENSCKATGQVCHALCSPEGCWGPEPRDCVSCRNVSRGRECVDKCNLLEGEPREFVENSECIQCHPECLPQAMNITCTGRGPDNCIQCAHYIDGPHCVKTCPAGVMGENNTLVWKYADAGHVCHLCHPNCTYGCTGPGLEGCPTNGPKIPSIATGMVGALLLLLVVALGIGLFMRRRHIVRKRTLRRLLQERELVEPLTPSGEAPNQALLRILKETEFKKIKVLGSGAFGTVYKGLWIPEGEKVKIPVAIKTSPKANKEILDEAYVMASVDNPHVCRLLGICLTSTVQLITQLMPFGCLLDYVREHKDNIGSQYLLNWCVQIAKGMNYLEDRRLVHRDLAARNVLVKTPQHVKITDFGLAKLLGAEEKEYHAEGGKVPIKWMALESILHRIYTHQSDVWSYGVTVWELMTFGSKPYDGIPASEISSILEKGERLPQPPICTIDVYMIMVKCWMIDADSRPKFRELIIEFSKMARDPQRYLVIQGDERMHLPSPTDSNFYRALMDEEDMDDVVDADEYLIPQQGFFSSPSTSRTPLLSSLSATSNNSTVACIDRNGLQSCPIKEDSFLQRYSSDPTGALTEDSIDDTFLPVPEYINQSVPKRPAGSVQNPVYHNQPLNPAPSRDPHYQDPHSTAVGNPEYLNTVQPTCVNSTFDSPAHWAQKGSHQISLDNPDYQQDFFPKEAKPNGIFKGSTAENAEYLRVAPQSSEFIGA
test-protocol: pEGFR Y1068 ELISA assay, PC9 cells
assay-context: inhibition of phosphorylation of EGFR at Tyr1068; PC9 NSCLC cells; 2 hr compound incubation
Give measured log10 IC50 for each item. Keep answers brief.
# log10 transformed; quantity=IC50; unit=nM

> print(dat)
                                   molecule  reported.measurement
1  C=CC(=O)N[C@@H]1CN(c2nc(Nc3cnn(C)c3)c3ncn(C(C)C)c3n2)C[C@@H]1OC (single isomer, unassigned)                  0.90
2  C=CC(=O)N[C@@H]1CN(c2nc(Nc3cn(C4CCN(C)C4)nc3C)c3ncn(C(C)C)c3n2)C[C@H]1F (some centres unmarked) [Example 55]                  0.48
3  C=CC(=O)N[C@@H]1CN(c2nc(Nc3cnn(C)c3)c3ncn(C(C)(C)C)c3n2)CC1F (stereo in doubt)                  0.90
4  C=CC(=O)N[C@@H]1CN(c2nc(Nc3cn(C4CCN(C)C4)nc3OC)c3ncn(C)c3n2)C[C@H]1F (some centres unmarked)                  0.48
5  C=CC(=O)N[C@H]1CCN(c2nc(Nc3cnn(C4CCN(C)C4)c3)c3ncn(C(C)C)c3n2)C1 (some centres unmarked)                  0.85

Can you give me log10 IC50 for all of these, one by one?
1. C=CC(=O)N[C@@H]1CN(c2nc(Nc3cnn([C@@H]4CCN(C)C4)c3C)c3ncn(C(C)C)c3n2)C[C@H]1F
2. C=CC(=O)N[C@@H]1CN(c2nc(Nc3cn(C)nc3C)c3ncn(C(C)C)c3n2)C[C@H]1F
3. C=CC(=O)N[C@@H]1CN(c2nc(Nc3cnn(C)c3)c3ncn(C(C)C)c3n2)C[C@H]1OC

Reply:
1. 2.02
2. 3.82
3. 1.15

Can you give me log10 IC50 for all of these, one by one?
1. C=CC(=O)NC1(C)CN(c2nc(Nc3cnn(C4CCN(C)CC4)c3)c3ncn(C(C)C)c3n2)C1
2. C=CC(=O)N[C@H]1CCN(c2nc(Nc3cnn(C4CCN(C)CC4)c3)c3ncn(C(C)C)c3n2)C1
3. C=CC(=O)N[C@@H]1CN(c2nc(Nc3cn(CC)nc3OC)c3ncn(C)c3n2)C[C@H]1F
4. C=CC(=O)N[C@H]1CCN(c2nc(Nc3ccc(N4CCN(C)CC4)cc3)c3ncn(CCO)c3n2)C1
5. C=CC(=O)N[C@@H]1CN(c2nc(Nc3cn(C4CCN(C)C4)nc3C)c3ncn(C)c3n2)C[C@H]1F (some centres unmarked)

Reply:
1.30
1.58
0.78
1.49
1.32

Ask: Can you share its log10 IC50? I mean this molecule: C=CC(=O)N[C@@H]1CN(c2nc(Nc3cn(C4CCN(C)C4)nc3C)c3ncn(C(C)C)c3n2)C[C@H]1F (some centres unmarked) [Example 65]
Reply: 1.04

====

study-system: EGFR del (PC9) (Homo sapiens, UniProt P00533, DEL746-750)
Construct: detects endogenous levels of phospho-EGF Receptor (Tyr1068) protein
test-protocol: pEGFR Y1068 ELISA assay, PC9 cells
assay-context: inhibition of phosphorylation of EGFR at Tyr1068; PC9 NSCLC cells; 2 hr compound incubation
Give measured pIC50 for each item. Keep answers brief.
Answers are plain numbers, as −log10 of the molar value.

Solved cases (2 shown):
> print(dat)
                                   molecule  reported.measurement
1  C=CC(=O)N[C@@H]1CN(c2nc(Nc3cn(CC(C)O)nc3OC)c3ncn(C(C)C)c3n2)C[C@H]1F (stereo partly shown)                  7.35
2  C=CC(=O)N1C[C@@H]2CN(c3nc(Nc4ccc(N5CCN(C)CC5)cc4)c4ncn(C(C)C)c4n3)C[C@@H]2C1                  8.10

Can you give me pIC50 for all of these, one by one?
1. C=CC(=O)N[C@@H]1CN(c2nc(Nc3ccc(N4CCN(C)CC4)cc3)c3ncn(C(C)C)c3n2)C[C@H]1OC
2. C=CC(=O)NC1(C)CN(c2nc(Nc3cnn(C)c3)c3ncn(C(C)C)c3n2)C1
3. C=CC(=O)N[C@H]1CCN(c2nc(Nc3ccc(N4CCN(C)CC4)cc3)c3ncn(C(C)C)c3n2)C1
4. C=CC(=O)N(C)[C@H]1C[C@H](Oc2nc(Nc3ccc(N4CCN(C)CC4)cc3)c3ncn(C(C)C)c3n2)C1
5. C=CC(=O)N[C@H]1CCN(c2nc(Nc3cnn(C)c3)c3ncn(C(C)C)c3n2)C1

Reply:
1. 8.52
2. 7.40
3. 7.66
4. 7.40
5. 7.28

====

Give measured IC50 for each item. Keep answers brief.
study-system: EGFR L858R+T790M, endogenous (NCI-H1975) (Homo sapiens, UniProt P00533, L858R/T790M)
Construct: NCI-H1975 (EGFR L858R+T790M, endogenous)
Sequence (P00533 25-1210 T790M/L858R): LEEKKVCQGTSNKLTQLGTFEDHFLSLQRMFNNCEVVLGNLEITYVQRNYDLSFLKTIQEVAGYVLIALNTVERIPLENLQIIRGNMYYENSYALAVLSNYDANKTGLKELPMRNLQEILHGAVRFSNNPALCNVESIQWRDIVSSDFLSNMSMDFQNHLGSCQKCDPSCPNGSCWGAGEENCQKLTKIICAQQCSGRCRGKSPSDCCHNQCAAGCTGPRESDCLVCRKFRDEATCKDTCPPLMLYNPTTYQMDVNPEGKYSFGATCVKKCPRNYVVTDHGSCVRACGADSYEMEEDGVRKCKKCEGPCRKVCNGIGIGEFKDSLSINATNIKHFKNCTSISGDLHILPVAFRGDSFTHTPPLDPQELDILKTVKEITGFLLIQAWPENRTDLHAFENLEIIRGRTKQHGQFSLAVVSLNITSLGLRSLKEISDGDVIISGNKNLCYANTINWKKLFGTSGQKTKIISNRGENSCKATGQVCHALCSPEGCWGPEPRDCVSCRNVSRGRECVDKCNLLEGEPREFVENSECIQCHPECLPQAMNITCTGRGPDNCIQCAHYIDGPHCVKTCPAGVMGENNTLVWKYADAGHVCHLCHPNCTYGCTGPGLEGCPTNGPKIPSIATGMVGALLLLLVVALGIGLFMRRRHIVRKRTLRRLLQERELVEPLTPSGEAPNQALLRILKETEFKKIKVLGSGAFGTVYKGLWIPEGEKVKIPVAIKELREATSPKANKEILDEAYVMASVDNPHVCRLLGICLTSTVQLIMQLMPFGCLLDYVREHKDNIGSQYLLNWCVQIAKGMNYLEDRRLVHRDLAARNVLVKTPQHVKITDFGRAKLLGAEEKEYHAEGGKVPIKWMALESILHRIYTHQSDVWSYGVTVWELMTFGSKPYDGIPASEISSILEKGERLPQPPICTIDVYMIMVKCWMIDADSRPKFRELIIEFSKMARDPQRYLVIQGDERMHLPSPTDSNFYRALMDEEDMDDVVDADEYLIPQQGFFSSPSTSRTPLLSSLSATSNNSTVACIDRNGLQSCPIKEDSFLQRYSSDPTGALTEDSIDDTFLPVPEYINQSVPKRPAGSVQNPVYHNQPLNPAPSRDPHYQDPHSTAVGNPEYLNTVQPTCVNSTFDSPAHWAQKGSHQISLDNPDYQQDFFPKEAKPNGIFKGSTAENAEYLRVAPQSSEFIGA
test-protocol: pEGFR Y1068 ELISA assay, NCI-H1975 cells
assay-context: inhibition of phosphorylation of EGFR at Tyr1068; NCI-H1975 NSCLC cells; 2 hr compound incubation
Where a name gives a salt, the structure may show the parent alone.
Give bare numbers, in nM.

Solved cases (5 shown):
> print(dat)
                                   compound  reported.measurement
1  C=CC(=O)N[C@@H]1CN(c2nc(Nc3cn(C4CCN(C)C4)nc3C)c3ncn(C)c3n2)C[C@H]1F (stereo partly shown)                    19
2  C=CC(=O)N[C@@H]1CN(c2nc(Nc3cn(CC(C)O)nc3OC)c3ncn(CC)c3n2)C[C@H]1F (stereo partly shown)                    32
3  C=CC(=O)N[C@@H]1CN(c2nc(Nc3cn(C)nc3C)c3ncn(C(C)C)c3n2)C[C@H]1F                  6140
4  C=CC(=O)N[C@@H]1CN(c2nc(Nc3cnn(C)c3)c3ncn(C(C)(C)C)c3n2)CC1F (stereo in doubt)                    21
5  C=CC(=O)Nc1cccc(Oc2nc(Nc3cnn(C)c3)c3ncn(C(C)C)c3n2)c1 [Example 3, trifluoroacetate]                    20

Can you give me IC50 for all of these, one by one?
1. C=CC(=O)N[C@@H]1CN(c2nc(Nc3cn(C4CCN(C)C4)nc3OC)c3ncn(C)c3n2)C[C@H]1F (stereo partly shown)
2. C=CC(=O)NC1(C)CN(c2nc(Nc3ccc(N4CCN(C)CC4)cc3)c3ncn(C(C)C)c3n2)C1

Reply:
1: 6; 2: 6
